Assignment: determine reported percent degradation of TPM3-TRKA protein at 0.01 µM for the given compounds.
target: TPM3-TRKA fusion protein (Homo sapiens, UniProt P04629); construct: The resulted chimeric proteins always retain the kinase domain of TRK proteins; TPM3 (fusion partner, N-terminal part of tropomyosin alpha-3, P06753); endogenous in cells; host or cells: KM12 colon cancer cells; the other entry of the earlier key: TPM3 (P06753, Tropomyosin alpha-3 chain); test: TPM3-TRKA fusion protein levels in KM12 cells (Western blot); format: cell-based; details: 16 h; TPM3-TRKA degradation in KM12 cells at 10 nM compound, category of percentage degradation; read-out: Degradation (at 10 nM)
Sequence (P04629 with tags, fused parts or gaps): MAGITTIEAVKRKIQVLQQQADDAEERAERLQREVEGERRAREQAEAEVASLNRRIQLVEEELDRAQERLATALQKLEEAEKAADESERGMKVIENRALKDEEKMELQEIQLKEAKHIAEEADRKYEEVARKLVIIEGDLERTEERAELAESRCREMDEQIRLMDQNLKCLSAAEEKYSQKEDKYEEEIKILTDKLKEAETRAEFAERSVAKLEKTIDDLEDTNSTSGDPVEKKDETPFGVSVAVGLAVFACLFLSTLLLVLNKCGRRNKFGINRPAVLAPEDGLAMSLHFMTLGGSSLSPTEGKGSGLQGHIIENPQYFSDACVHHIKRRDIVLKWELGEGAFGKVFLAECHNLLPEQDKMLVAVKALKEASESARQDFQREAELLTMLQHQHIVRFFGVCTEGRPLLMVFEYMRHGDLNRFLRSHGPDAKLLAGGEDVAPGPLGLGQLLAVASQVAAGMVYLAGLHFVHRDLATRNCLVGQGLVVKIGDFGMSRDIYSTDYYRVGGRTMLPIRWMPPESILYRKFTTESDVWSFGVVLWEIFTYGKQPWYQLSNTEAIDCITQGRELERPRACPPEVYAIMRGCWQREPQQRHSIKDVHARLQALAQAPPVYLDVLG

Known results for compounds:
O=C1CCC(N2C(=O)c3cccc(NCCCCCCCC(=O)N4CCN(c5cccc(-c6cnc7ccc(N8CCC[C@@H]8c8cccc(F)c8)nn67)n5)CC4)c3C2=O)C(=O)N1 (some centres unmarked) = > 80%
O=C1CCC(N2C(=O)c3ccc(NCCCN4CCN(c5cccc(-c6cnc7ccc(N8CCC[C@@H]8c8cccc(F)c8)nn67)n5)CC4)cc3C2=O)C(=O)N1 (some centres unmarked) = > 80%

List percent degradation of TPM3-TRKA protein at 0.01 µM for every entry below, keeping the order given.
1. O=C1CCC(N2Cc3ccc(NCC(=O)N4CCN(c5cccc(-c6cnc7ccc(N8CCC[C@@H]8c8cccc(F)c8)nn67)n5)CC4)cc3C2=O)C(=O)N1 (some centres unmarked)
2. O=C1CCC(N2C(=O)c3ccc(NCCOCCOCCOCCOCCC(=O)N4CCN(c5ccc(C(=O)Nc6n[nH]c7ccc(Cc8cc(F)cc(F)c8)cc67)c(NC6CCOCC6)c5)CC4)cc3C2=O)C(=O)N1 (centres unmarked)
3. Cc1ncsc1-c1ccc(CNC(=O)[C@@H]2C[C@@H](O)CN2C(=O)[C@@H](NC(=O)CCCCCCCCCC(=O)N2CCN(c3cccc(-c4cnc5ccc(N6CCC[C@@H]6c6cccc(F)c6)nn45)n3)CC2)C(C)(C)C)cc1

["> 80%", "> 80%", "50 to 80%"]

====

target: TPM3-TRKA fusion protein (Homo sapiens); construct: The resulted chimeric proteins always retain the kinase domain of TRK proteins; TPM3 (fusion partner, N-terminal part of tropomyosin alpha-3, P06753); endogenous in cells; host or cells: KM12 colon cancer cells; the other entry of the earlier key: TPM3 (P06753, Tropomyosin alpha-3 chain); assay: TPM3-TRKA fusion protein levels in KM12 cells (Western blot); format: cell-based; details: KM12, 16 h, read-out: Degradation (at 10 nM)
Measured Endpoint: percent degradation of TPM3-TRKA protein at 0.01 µM

Known results for compounds:
Cn1c(=O)n(C2CCC(=O)NC2=O)c2ccc(NCCN3CCN(c4ccc(C(=O)Nc5n[nH]c6ccc(Cc7cc(F)cc(F)c7)cc56)c(NC5CCOCC5)c4)CC3)cc21 (centres unmarked) = > 80%
O=C1CCC(N2Cc3cc(C#CC4CCN(c5ccc(C(=O)Nc6n[nH]c7ccc(Cc8cc(F)cc(F)c8)cc67)c(NC6CCOCC6)c5)CC4)ccc3C2=O)C(=O)N1 (centres unmarked) = > 80%
O=C1CCC(N2C(=O)c3ccc(CN4CC(N5CCN(c6ccc(C(=O)Nc7n[nH]c8ccc(Cc9cc(F)cc(F)c9)cc78)cc6)CC5)C4)cc3C2=O)C(=O)N1 (centres unmarked) = 50 to 80%

List percent degradation of TPM3-TRKA protein at 0.01 µM for every entry below, keeping the order given.
1. O=C1CCC(N2C(=O)c3ccc(N4CC(NC5CCN(c6cccc(-c7cnc8ccc(N9CCC[C@@H]9c9cccc(F)c9)nn78)n6)CC5)C4)cc3C2=O)C(=O)N1 (some centres unmarked)
2. Cn1c(=O)n(C2CCC(=O)NC2=O)c2ccc(OCCN3CCN(c4ccc(C(=O)Nc5n[nH]c6ccc(Cc7cc(F)cc(F)c7)cc56)c(NC5CCOCC5)c4)CC3)cc21 (centres unmarked)

1. > 80%
2. 50 to 80%

Ref: patent US12410171B2
